- method-notes: Biodistribution in Daudi xenograft bearing mice
- Assay type: in vivo, mouse
- conditions-used: female, CB-17 SCID, mouse, stomach, iv, total radioactivity, 6h p.i., i.v.; means ± SD, n=4-5; read-out: Biodistribution stomach
Where a SMILES comes first, the peptide text is derived from it. Side-chain parts run from the residue outwards. [ ]: non-standard residue; d: D form. The star is where a group is joined. DOTA = O=C(O)CN1CCN(CC(=O)O)CCN(CC(=O)*)CCN(CC(=O)O)CC1; dTyr(3-I) = N[C@H](Cc1ccc(O)c(I)c1)C(=O)O; 2Nal = N[C@@H](Cc1ccc2ccccc2c1)C(=O)O; dNMeOrn = CN[C@H](CCCN)C(=O)O; 4Abz = Nc1ccc(C(=O)O)cc1
Reported tissue uptake at 6 h values are given for each entry in this list.
# output: bare number, implied unit %ID/g

C[C@@H](NC(=O)[C@@H](CCCNC(=N)N)NC(=O)CN1CCN(CC(=O)O)CCN(CC(=O)O)CCN(CC(=O)O)CC1)C(=O)Nc1ccc(C(=O)NCCC[C@@H]2C(=O)N[C@@H](CCCNC(=N)N)C(=O)N[C@@H](Cc3ccc4ccccc4c3)C(=O)NCC(=O)N[C@H](Cc3ccc(O)c(I)c3)C(=O)N2C)cc1 [[^177Lu]DOTA-r-a-ABA-iodoCPCR4, metal not drawn] (cyclo([2Nal]G[dTyr(3-I)][dNMeOrn]([4Abz-dA-dR-DOTA])R))    0.25

Proceeding to the next compound to report its tissue uptake at 6 h.
The compound C[C@@H](NC(=O)[C@@H](CCCNC(=N)N)NC(=O)CN1CCN(CC(=O)O)CCN(CC(=O)O)CCN(CC(=O)O)CC1)C(=O)Nc1ccc(C(=O)NCCC[C@@H]2C(=O)N[C@@H](CCCNC(=N)N)C(=O)N[C@@H](Cc3ccc4ccccc4c3)C(=O)NCC(=O)N[C@H](Cc3ccc(O)cc3)C(=O)N2C)cc1 [[^177Lu]DOTA-r-a-ABA-CPCR4, metal not drawn] (cyclo([2Nal]G[dY][dNMeOrn]([4Abz-dA-dR-DOTA])R)) showed tissue uptake at 6 h equal to 0.25
